Reference source: patent US8053474B2

Collected Water Solubility values appear next to each entry.
assay: Water Solubility; assay type: physicochemical; settings: in water

>>> assay_value("CN(C)CCNC(=O)CCCCCCCCC(=O)O")
"17%"
>>> assay_value("O=C(O)CCCCCCCC(=O)O [Azelaic acid, reference compound]")
"<0.5%"
>>> assay_value("CN(C)CCCNC(=O)CCCCCCCC(=O)O")
"33%"

// Input: `CN(C)CCCNC(=O)CCCCCCCCC(=O)O` . Output its Water Solubility only.
29%

// Input: `CC(C)N(CCNC(=O)CCCCCCCC(=O)O)C(C)C` . Output its Water Solubility only.
22%

====

system: Mushroom Tyrosinase; assay: Mushroom Tyrosinase Inhibition Test (Dopa base); type: biochemical; conditions: Dopa base (L-Dopa 1 mg/mL, pH 6.5); sample solution 2% in water, 100 μL in 900 μL substrate; 3 min, 475 nm
READOUT_LABEL: Mushroom Tyrosinase Inhibition (%)
Express your answer in %, writing the number without its unit.

Sample answers from the record:
>>> assay_value("CN(C)CCNC(=O)CCCCCCCCC(=O)O")
50.6
>>> assay_value("CN(C)CCNC(=O)CCCCCCCC(=O)O")
74.3
>>> assay_value("CN(C)CCCNC(=O)CCCCCCCCC(=O)O")
60.0
>>> assay_value("CC(C)N(CCNC(=O)CCCCCCCC(=O)O)C(C)C")
45.7

API: the following record is the query input.
// Input: `CN(C)CCCNC(=O)CCCCCCCC(=O)O` . Output its Mushroom Tyrosinase Inhibition only.
56.3
